Test: in vivo
Conditions: nude, mouse, in vivo, half-life of ICG signal in background tissues
Excerpt: FIGS. 30A-B. Decay of background tissue fluorescence signal over time. (FIG. 30A) Representative in vivo imaging of 1CG4-GS-Au25 injected mouse (72 hr p.i.) illustrating the region of interest (ROI) chosen for tumor (red dashed circle) and background tissue (yellow dashed circle) ICG fluorescence quantification. Red arrows indicate tumor location.
observable: half-life (h)
Could you give me the number in h? Just the number is fine.

# half-life lookup, item CC1(C)C(/C=C/C=C/C=C/C=C2\N(CCCCS(=O)(=O)O)c3ccc4ccccc4c3C2(C)C)=[N+](CCCCS(=O)(=O)[O-])c2ccc3ccccc3c21 [free ICG, indocyanine green]
3.5

Entry source: patent US12440582B2
